# System: Streptococcus pyogenes SSI-9
# protocol description: Antibacterial activity assay of bead-derived peptides (three concentrations)
# Type: cell-based
# Design: key: +++: inhibition by the 640-fold diluted peptide solution; ++: inhibition by the 160-fold diluted solution; +: inhibition by the 40-fold diluted solution; -: no inhibition
# cond: S. pyogenes, bead-derived peptide solution, three concentrations
Where a SMILES comes first, the peptide text is derived from it. [ ]: non-standard residue; d: D form. The star is where a group is joined. NHCH2CH2OH = OCCN*; For = O=C*
observation type: antibacterial activity

compound="CC(C)C[C@@H](NC(=O)[C@H](Cc1c[nH]c2ccccc12)NC(=O)[C@H](NC(=O)[C@H](Cc1c[nH]c2ccccc12)NC(=O)[C@H](NC(=O)[C@H](Cc1c[nH]c2ccccc12)NC(=O)[C@H](NC(=O)[C@@H](NC(=O)[C@H](NC(=O)[C@H](C)NC(=O)[C@H](NC(=O)[C@H](C)NC(=O)CNC(=O)[C@@H](NC=O)C(C)C)C(C)C)C(C)C)C(C)C)C(C)C)C(C)C)C(C)C)C(=O)N[C@@H](Cc1c[nH]c2ccccc12)C(=O)NCCO [compound 10699] (For-VGA[dV]A[dV]V[dV]W[dV]W[dV]W[dL]W-NHCH2CH2OH)" observation_type="antibacterial activity" endpoint_result=-
compound="CC(C)C[C@@H](NC(=O)[C@H](C)NC(=O)[C@H](NC(=O)[C@H](C)NC(=O)CNC(=O)[C@@H](NC=O)C(C)C)C(C)C)C(=O)N[C@H](C(=O)N[C@@H](C(=O)N[C@@H](Cc1c[nH]c2ccccc12)C(=O)N[C@@H](C(=O)N[C@@H](Cc1c[nH]c2ccccc12)C(=O)N[C@@H](C(=O)N[C@@H](Cc1c[nH]c2ccccc12)C(=O)N[C@@H](C(=O)N[C@@H](Cc1c[nH]c2ccccc12)C(=O)NCCO)C(C)C)C(C)C)C(C)C)C(C)C)C(C)C [compound 13030] (For-VGA[dV]A[dL]V[dV]W[dV]W[dV]W[dV]W-NHCH2CH2OH)" observation_type="antibacterial activity" endpoint_result=+
compound="CC(C)C[C@@H](NC(=O)[C@H](C)NC(=O)CNC(=O)[C@@H](NC=O)C(C)C)C(=O)N[C@@H](C)C(=O)N[C@H](CC(C)C)C(=O)N[C@H](C(=O)N[C@@H](C(=O)N[C@@H](Cc1c[nH]c2ccccc12)C(=O)N[C@@H](C(=O)N[C@@H](Cc1c[nH]c2ccccc12)C(=O)N[C@H](CC(C)C)C(=O)N[C@@H](Cc1c[nH]c2ccccc12)C(=O)N[C@H](CC(C)C)C(=O)N[C@@H](Cc1c[nH]c2ccccc12)C(=O)NCCO)C(C)C)[C@H](C)O)C(C)C [compound 10710] (For-VGA[dL]A[dL]V[dT]W[dV]W[dL]W[dL]W-NHCH2CH2OH)" observation_type="antibacterial activity" endpoint_result=-
compound="CC(C)C[C@@H](NC(=O)[C@H](C)NC(=O)[C@H](NC(=O)[C@H](C)NC(=O)CNC(=O)[C@@H](NC=O)C(C)C)C(C)C)C(=O)N[C@H](C(=O)N[C@H](CC(C)C)C(=O)N[C@@H](Cc1c[nH]c2ccccc12)C(=O)N[C@@H](C(=O)N[C@@H](Cc1c[nH]c2ccccc12)C(=O)N[C@@H](C(=O)N[C@@H](Cc1c[nH]c2ccccc12)C(=O)N[C@H](CC(C)C)C(=O)N[C@@H](Cc1c[nH]c2ccccc12)C(=O)NCCO)C(C)C)C(C)C)C(C)C [compound 11126] (For-VGA[dV]A[dL]V[dL]W[dV]W[dV]W[dL]W-NHCH2CH2OH)" observation_type="antibacterial activity" endpoint_result=-

* * *

# Test system: P388 mouse leukemia cells
# cond: 92 h
Where a SMILES comes first, the peptide text is derived from it. [ ]: non-standard residue; d: D form. The star is where a group is joined. NHCH2CH2OH = OCCN*; For = O=C*
Reported cell viability/% values are given for each entry in this list.
observation type: cell viability/% (%)

compound="CC(C)C[C@@H](NC(=O)[C@@H](NC(=O)[C@H](NC(=O)[C@H](C)NC(=O)[C@H](NC(=O)[C@H](C)NC(=O)CNC(=O)[C@@H](NC=O)C(C)C)C(C)C)C(C)C)C(C)C)C(=O)N[C@@H](Cc1c[nH]c2ccccc12)C(=O)N[C@@H](C(=O)N[C@@H](Cc1c[nH]c2ccccc12)C(=O)N[C@@H](C(=O)N[C@@H](Cc1c[nH]c2ccccc12)C(=O)N[C@@H](C(=O)N[C@@H](Cc1c[nH]c2ccccc12)C(=O)NCCO)[C@H](C)O)C(C)C)C(C)C [compound 6781] (For-VGA[dV]A[dV]V[dL]W[dV]W[dV]W[dT]W-NHCH2CH2OH)" endpoint_result=100.0
compound="CC(C)C[C@@H](NC(=O)[C@H](Cc1c[nH]c2ccccc12)NC(=O)[C@H](NC(=O)[C@H](Cc1c[nH]c2ccccc12)NC(=O)[C@@H](CC(C)C)NC(=O)[C@@H](NC(=O)[C@H](NC(=O)[C@H](C)NC(=O)[C@H](NC(=O)[C@H](C)NC(=O)CNC(=O)[C@@H](NC=O)C(C)C)[C@H](C)O)C(C)C)C(C)C)C(C)C)C(=O)N[C@@H](Cc1c[nH]c2ccccc12)C(=O)N[C@@H](C(=O)N[C@@H](Cc1c[nH]c2ccccc12)C(=O)NCCO)C(C)C [compound 6116] (For-VGA[dT]A[dV]V[dL]W[dV]W[dL]W[dV]W-NHCH2CH2OH)" endpoint_result=93.5
compound="CC(C)C[C@@H](NC(=O)[C@H](C)NC(=O)[C@H](NC(=O)[C@H](C)NC(=O)CNC(=O)[C@@H](NC=O)C(C)C)C(C)C)C(=O)N[C@H](C(=O)N[C@H](CC(C)C)C(=O)N[C@@H](Cc1c[nH]c2ccccc12)C(=O)N[C@@H](C(=O)N[C@@H](Cc1c[nH]c2ccccc12)C(=O)N[C@@H](C(=O)N[C@@H](Cc1c[nH]c2ccccc12)C(=O)N[C@H](CC(C)C)C(=O)N[C@@H](Cc1c[nH]c2ccccc12)C(=O)NCCO)C(C)C)[C@H](C)O)C(C)C [compound 6572] (For-VGA[dV]A[dL]V[dL]W[dT]W[dV]W[dL]W-NHCH2CH2OH)" endpoint_result=100.0
compound="CC(C)C[C@@H](NC(=O)[C@H](C)NC(=O)[C@H](NC(=O)[C@H](C)NC(=O)CNC(=O)[C@@H](NC=O)C(C)C)C(C)C)C(=O)N[C@H](C(=O)N[C@@H](C(=O)N[C@@H](Cc1c[nH]c2ccccc12)C(=O)N[C@H](CC(C)C)C(=O)N[C@@H](Cc1c[nH]c2ccccc12)C(=O)N[C@@H](C(=O)N[C@@H](Cc1c[nH]c2ccccc12)C(=O)N[C@H](CC(C)C)C(=O)N[C@@H](Cc1c[nH]c2ccccc12)C(=O)NCCO)[C@H](C)O)C(C)C)C(C)C [compound 11374] (For-VGA[dV]A[dL]V[dV]W[dL]W[dT]W[dL]W-NHCH2CH2OH)" endpoint_result=45.1

* * *

# Test system: P388 mouse leukemia cells
# cond: 92 h
Where a SMILES comes first, the peptide text is derived from it. [ ]: non-standard residue; d: D form. The star is where a group is joined. NHCH2CH2OH = OCCN*; For = O=C*
observation type: cell viability/% (%)

compound="CC(C)C[C@@H](NC(=O)[C@H](C)NC(=O)[C@H](NC(=O)[C@H](C)NC(=O)CNC(=O)[C@@H](NC=O)C(C)C)C(C)C)C(=O)N[C@H](C(=O)N[C@@H](C(=O)N[C@@H](Cc1c[nH]c2ccccc12)C(=O)N[C@@H](C(=O)N[C@@H](Cc1c[nH]c2ccccc12)C(=O)N[C@H](CC(C)C)C(=O)N[C@@H](Cc1c[nH]c2ccccc12)C(=O)N[C@@H](C(=O)N[C@@H](Cc1c[nH]c2ccccc12)C(=O)NCCO)C(C)C)C(C)C)[C@H](C)O)C(C)C [compound 4710] (For-VGA[dV]A[dL]V[dT]W[dV]W[dL]W[dV]W-NHCH2CH2OH)" endpoint_result=100.0
compound="CC(C)C[C@@H](NC(=O)[C@H](C)NC(=O)CNC(=O)[C@@H](NC=O)C(C)C)C(=O)N[C@@H](C)C(=O)N[C@H](CC(C)C)C(=O)N[C@H](C(=O)N[C@@H](C(=O)N[C@@H](Cc1c[nH]c2ccccc12)C(=O)N[C@@H](C(=O)N[C@@H](Cc1c[nH]c2ccccc12)C(=O)N[C@@H](C(=O)N[C@@H](Cc1c[nH]c2ccccc12)C(=O)N[C@@H](C(=O)N[C@@H](Cc1c[nH]c2ccccc12)C(=O)NCCO)C(C)C)[C@H](C)O)C(C)C)C(C)C)C(C)C [compound 2887] (For-VGA[dL]A[dL]V[dV]W[dV]W[dT]W[dV]W-NHCH2CH2OH)" endpoint_result=99.0
compound="CC(C)C[C@@H](NC(=O)[C@H](C)NC(=O)CNC(=O)[C@@H](NC=O)C(C)C)C(=O)N[C@@H](C)C(=O)N[C@H](CC(C)C)C(=O)N[C@H](C(=O)N[C@@H](C(=O)N[C@@H](Cc1c[nH]c2ccccc12)C(=O)N[C@@H](C(=O)N[C@@H](Cc1c[nH]c2ccccc12)C(=O)N[C@@H](C(=O)N[C@@H](Cc1c[nH]c2ccccc12)C(=O)N[C@H](CC(C)C)C(=O)N[C@@H](Cc1c[nH]c2ccccc12)C(=O)NCCO)C(C)C)[C@H](C)O)C(C)C)C(C)C [compound 4031] (For-VGA[dL]A[dL]V[dV]W[dT]W[dV]W[dL]W-NHCH2CH2OH)" endpoint_result=92.4
compound="CC(C)C[C@@H](NC(=O)[C@H](Cc1c[nH]c2ccccc12)NC(=O)[C@H](NC(=O)[C@H](Cc1c[nH]c2ccccc12)NC(=O)[C@H](NC(=O)[C@H](Cc1c[nH]c2ccccc12)NC(=O)[C@H](NC(=O)[C@@H](NC(=O)[C@H](NC(=O)[C@H](C)NC(=O)[C@H](NC(=O)[C@H](C)NC(=O)CNC(=O)[C@@H](NC=O)C(C)C)C(C)C)[C@H](C)O)C(C)C)C(C)C)C(C)C)C(C)C)C(=O)N[C@@H](Cc1c[nH]c2ccccc12)C(=O)NCCO [compound 9058] (For-VGA[dV]A[dT]V[dV]W[dV]W[dV]W[dL]W-NHCH2CH2OH)" endpoint_result=58.0
